All values here come from paper PMC3817407.

- system-under-test: T1, ECF33_375
- T1 chain: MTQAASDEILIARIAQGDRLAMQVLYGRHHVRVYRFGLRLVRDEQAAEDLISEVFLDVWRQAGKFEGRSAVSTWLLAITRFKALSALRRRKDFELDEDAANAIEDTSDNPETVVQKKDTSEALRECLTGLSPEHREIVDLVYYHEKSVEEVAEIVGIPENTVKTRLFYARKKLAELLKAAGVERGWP
metric: fold repression
Give your answer as a number; write no unit.

# lookup: fold repression of AS33_423 (protein) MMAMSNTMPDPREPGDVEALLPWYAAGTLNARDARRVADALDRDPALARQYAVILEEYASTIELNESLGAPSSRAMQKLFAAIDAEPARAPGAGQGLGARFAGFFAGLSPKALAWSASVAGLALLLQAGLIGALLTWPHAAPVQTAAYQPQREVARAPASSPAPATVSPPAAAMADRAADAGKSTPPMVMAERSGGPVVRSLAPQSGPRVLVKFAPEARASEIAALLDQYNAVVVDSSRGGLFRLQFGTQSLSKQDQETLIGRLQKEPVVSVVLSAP
114
